All values here come from patent US20240116985A1.

assay: Solubility in PBS; format: physicochemical; conditions: Solubility (uM)
Starred links: 1 amine or outer side, 2 acyl side, 3 side chain; linkers in the order of their positions; H or OH if unused. Non-standard residues stand in square brackets, D forms with d. Residues, ends and D or L forms follow the SMILES beside them. X1 = C=CCOC(=O)N1CC[C@@](N[*:1])(C(=O)[*:2])C1; R8 = C=CCCCCCC[C@@](C)(N)C(=O)O
Quick list: solubility at 15 min per entry.
Hi, when you answer, please include the unit after the number. Thanks!

CC[C@H](C)[C@@H]1NC(=O)[C@H](Cc2ccccc2)NC(=O)[C@]2(CC=CCCCC3(CCCC=CCCCCCC[C@@](C)(C(=O)N[C@@H](Cc4ccccc4)C(=O)N[C@@H](Cc4csc5ccccc45)C(=O)N[C@@H](CCC(N)=O)C(N)=O)NC(=O)[C@H](CCC(N)=O)NC(=O)[C@H](CC(=O)O)NC(=O)[C@H](C)NC(=O)[C@H](C)NC(=O)[C@H](CCC(=O)O)NC(=O)[C@H](CC(=O)O)NC3=O)NC1=O)CCCN2C(C)=O (stereo partly drawn) :: 49 µM
CC(=O)N1CCC[C@]12CC=CCCCC1(CCCC=CCCCOC(=O)N3CC[C@@](C(=O)N[C@@H](CC4CCCC4)C(=O)N[C@@H](Cc4csc5ccccc45)C(=O)N[C@@H](CCC(N)=O)C(N)=O)(C3)NC(=O)[C@H](CC(C)C)NC(=O)[C@H](Cc3ccccc3)NC(=O)[C@H](C)NC(=O)[C@H](C)NC(=O)[C@H](CC(=O)O)NC(=O)[C@H](CC(=O)O)NC1=O)NC(=O)[C@H](CC(C)(C)C)NC(=O)[C@H](CC(=O)O)NC2=O (stereo partly drawn) :: 44 µM
COCCOCCOCCOCCOCCOCCOCCOCCC(=O)NCCCC[C@@H]1NC(=O)[C@H](C)NC(=O)[C@H](CC(=O)O)NC(=O)[C@H](CC(=O)O)NC(=O)C2(CCCC=CCCCOC(=O)N3CC[C@@](C(=O)N[C@@H](Cc4ccsc4)C(=O)N[C@@H](Cc4csc5ccccc45)C(=O)N[C@@H](CCC(N)=O)C(N)=O)(C3)NC(=O)[C@H](CC(N)=O)NC(=O)[C@H](Cc3ccccc3)NC1=O)CCCC=CC[C@]1(CCCN1C(C)=O)C(=O)N[C@@H](CC(=O)O)C(=O)N[C@@H](CC(C)(C)C)C(=O)N2 (stereo partly drawn) :: 30 µM
CC(=O)N1CCC[C@]12CC=CCCCC1(CCCC=CCCCOC(=O)N3CC[C@@](C(=O)N[C@@H](Cc4ccccc4Br)C(=O)N[C@@H](Cc4csc5ccccc45)C(=O)N[C@@H](CCC(N)=O)C(N)=O)(C3)NC(=O)[C@H](Cc3ccccc3)NC(=O)[C@H](Cc3ccccc3)NC(=O)[C@H](C)NC(=O)[C@H](C)NC(=O)[C@H](CC(=O)O)NC(=O)[C@H](CC(=O)O)NC1=O)NC(=O)[C@H](CC(C)(C)C)NC(=O)[C@H](CC(=O)O)NC2=O (stereo partly drawn) :: 12 µM
CC(=O)N1CCC[C@]12CC=CCCCC1(CCCC=CCCCOC(=O)N3CC[C@@](C(=O)N[C@@H](CCc4ccccc4)C(=O)N[C@@H](Cc4csc5ccccc45)C(=O)N[C@@H](CCC(N)=O)C(N)=O)(C3)NC(=O)[C@H](Cc3ccccc3)NC(=O)[C@H](Cc3ccccc3)NC(=O)[C@H](C)NC(=O)[C@H](C)NC(=O)[C@H](CC(=O)O)NC(=O)[C@H](CC(=O)O)NC1=O)NC(=O)[C@H](CC(C)(C)C)NC(=O)[C@H](CC(=O)O)NC2=O (stereo partly drawn) :: 14 µM
CC(=O)N1CCC[C@]12CC=CCCCC1(CCCC=CCCCCCC[C@@](C)(C(=O)NC(Cc3cncn3C)C(=O)N[C@@H](Cc3csc4ccccc34)C(=O)N[C@@H](CCC(N)=O)C(N)=O)NC(=O)[C@H](CC(N)=O)NC(=O)[C@H](Cc3ccccc3)NC(=O)[C@H](C)NC(=O)[C@H](C)NC(=O)[C@H](CCC(=O)O)NC(=O)[C@H](CC(=O)O)NC1=O)NC(=O)[C@H](C)NC(=O)[C@H](CC(=O)O)NC2=O (stereo partly drawn) :: 46 µM
C=CCCCCCC[C@@](C)(NC(=O)[C@H](C)NC(=O)[C@H](CC(=O)O)NC(=O)[C@H](Cc1ccccc1)NC(C)=O)C(=O)N[C@@H](CC(=O)O)C(=O)N[C@@H](CC(=O)O)C(=O)N[C@@H](C)C(=O)N[C@@H](C)C(=O)N[C@@H](Cc1ccccc1)C(=O)N[C@@H](CCC(N)=O)C(=O)N[C@@]1(C(=O)N[C@@H](Cc2ccccc2)C(=O)N[C@@H](Cc2c[nH]c3ccccc23)C(=O)N[C@@H](CCC(N)=O)C(N)=O)CCN(C(=O)OCC=C)C1 [I-579] (Ac-FDA[R8]DDAAFQ[X1]FWQ-NH2) :: 45 µM
COc1ccccc1C[C@H](NC(=O)[C@]12CCN(C1)C(=O)OCCCC=CCCCC1(CCCC=CC[C@]3(CCCN3C(C)=O)C(=O)N[C@@H](CC(=O)O)C(=O)N[C@@H](CC(C)(C)C)C(=O)N1)C(=O)N[C@@H](CC(=O)O)C(=O)N[C@@H](CC(=O)O)C(=O)N[C@@H](C)C(=O)N[C@@H](C)C(=O)N[C@@H](Cc1ccccc1)C(=O)N[C@@H](CC(C)C)C(=O)N2)C(=O)N[C@@H](Cc1csc2ccccc12)C(=O)N[C@@H](CCC(N)=O)C(N)=O (stereo partly drawn) :: 39 µM

Read the next record carefully.
Lookup: // returns reported solubility at 15 min for input CC(=O)N1CCC[C@]12CC=CCCCC1(CCCC=CCCCOC(=O)N3CC[C@@](C(=O)N[C@@H](CC4CCCCC4)C(=O)N[C@@H](Cc4csc5ccccc45)C(=O)N[C@@H](CCC(N)=O)C(N)=O)(C3)NC(=O)[C@H](CC(N)=O)NC(=O)[C@H](Cc3ccccc3)NC(=O)[C@H](C)NC(=O)[C@H](C)NC(=O)[C@H](CC(=O)O)NC(=O)[C@H](CC(=O)O)NC1=O)NC(=O)[C@H](CC(C)(C)C)NC(=O)[C@H](CC(=O)O)NC2=O (stereo partly drawn)
Found: 45 µM

====

assay: CHI Log D procedure; type: physicochemical; conditions: pH 7.4, CHI Log D
Observed property: chromatographic logD
Simply state the number, no unit and no words.

CC(=O)N1CCC[C@]12CC=CCCCC1(CCCC=CCCCOC(=O)N3CC[C@@](C(=O)N[C@@H](Cc4ccccc4F)C(=O)N[C@@H](Cc4csc5ccccc45)C(=O)N[C@@H](CO)C(N)=O)(C3)NC(=O)[C@H](CO)NC(=O)[C@H](Cc3ccccc3)NC(=O)[C@H](C)NC(=O)[C@H](C)NC(=O)[C@H](CC(=O)O)NC(=O)[C@H](CC(=O)O)NC1=O)NC(=O)[C@H](CC(C)(C)C)NC(=O)[C@H](CC(=O)O)NC2=O (some centres unmarked) :: 2.22

Read the next record carefully.
Lookup: // returns reported chromatographic logD for input CC(=O)N1CCC[C@]12CC=CCCCC1(CCCC=CCCCOC(=O)N3CC[C@@](C(=O)N[C@@H](Cc4ccccc4Cl)C(=O)N[C@@H](Cc4csc5ccccc45)C(=O)N[C@@H](CCO)C(N)=O)(C3)NC(=O)[C@H](CCO)NC(=O)[C@H](Cc3ccccc3)NC(=O)[C@H](C)NC(=O)[C@H](C)NC(=O)[C@H](CN(CC(=O)O)CC(F)(F)F)NC(=O)[C@H](CC(=O)O)NC1=O)NC(=O)[C@H](CC(C)(C)C)NC(=O)[C@H](CC(=O)O)NC2=O (some centres unmarked)
Found: 2.33

====

Quick list: IC50 per entry.
molecular target: beta-catenin/TCF4 engagement (Homo sapiens, UniProt P35222); construct: expressed in transfected cells; host or cells: HEK293; test: Nano-BRET target engagement assay (B-cat-Halo & TCF4-Luc in HEK293 cells); format: cell-based; conditions: absolute IC50; read-out: NanoBRET Abs IC50
Sequence (P35222 whole entry): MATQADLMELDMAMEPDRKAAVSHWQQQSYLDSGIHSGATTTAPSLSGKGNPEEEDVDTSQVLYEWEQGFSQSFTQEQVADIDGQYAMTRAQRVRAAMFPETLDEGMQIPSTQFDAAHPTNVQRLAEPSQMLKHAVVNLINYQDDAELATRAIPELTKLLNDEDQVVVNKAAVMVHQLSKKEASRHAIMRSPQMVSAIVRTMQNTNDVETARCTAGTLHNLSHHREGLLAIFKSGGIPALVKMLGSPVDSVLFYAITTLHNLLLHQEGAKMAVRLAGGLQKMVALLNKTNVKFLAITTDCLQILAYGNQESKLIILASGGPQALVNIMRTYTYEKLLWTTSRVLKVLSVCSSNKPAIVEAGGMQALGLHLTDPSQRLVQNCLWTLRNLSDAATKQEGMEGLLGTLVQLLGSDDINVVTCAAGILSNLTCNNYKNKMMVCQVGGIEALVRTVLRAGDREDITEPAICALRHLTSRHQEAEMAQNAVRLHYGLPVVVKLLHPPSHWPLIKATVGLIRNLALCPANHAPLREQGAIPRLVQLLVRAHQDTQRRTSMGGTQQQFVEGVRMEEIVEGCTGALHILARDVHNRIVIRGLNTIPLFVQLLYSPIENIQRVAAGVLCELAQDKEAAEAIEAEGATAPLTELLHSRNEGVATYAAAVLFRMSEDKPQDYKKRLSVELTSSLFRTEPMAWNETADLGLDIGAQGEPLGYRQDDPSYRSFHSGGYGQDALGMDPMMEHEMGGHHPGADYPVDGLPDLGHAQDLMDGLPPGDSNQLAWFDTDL
Give a bare numeral; the unit µM is implied.

CC(=O)N1CCC[C@]12CC=CCCCC1(CCCC=CCCCOC(=O)N3CC[C@@](C(=O)N[C@@H](Cc4ccccc4C(F)(F)F)C(=O)N[C@H](C(=O)N[C@@H](CCC(N)=O)C(N)=O)[C@@H](C)c4csc5ccccc45)(C3)NC(=O)[C@H](CC(C)C)NC(=O)[C@H](Cc3ccccc3)NC(=O)[C@H](C)NC(=O)[C@H](C)NC(=O)[C@H](Cc3cccc(C(=O)O)c3)NC(=O)[C@H](CC(=O)O)NC1=O)NC(=O)[C@H](CC(C)(C)C)NC(=O)[C@H](CC(=O)O)NC2=O (some centres unmarked) [I-2456] :: 8.1

Read the next record carefully.
Lookup: // returns reported IC50 for input CC(=O)N1CCC[C@]12CC=CCCCC1(CCCC=CCCCOC(=O)N3CC[C@@](C(=O)N[C@@H](Cc4ccccc4C(F)(F)F)C(=O)N[C@@H](Cc4ccc(F)c(Br)c4)C(=O)N[C@@H](CO)C(N)=O)(C3)NC(=O)[C@H](CC(C)C)NC(=O)[C@H](Cc3ccccc3)NC(=O)[C@H](C)NC(=O)[C@H](C)NC(=O)[C@H](Cc3cccc(C(=O)O)c3)NC(=O)[C@H](CC(=O)O)NC1=O)NC(=O)[C@H](CC(C)(C)C)NC(=O)[C@H](CC(=O)O)NC2=O (some centres unmarked) [I-2289]
Found: 9
